melting point overview

Consider the reported melting point for these molecules:
1) Cc1ccc(S(=O)(=O)Cc2nc(-c3ccc(C(=O)Nc4ccncc4)cc3)oc2C)cc1 [Example 2] ... 229 to 231 °C
2) Cc1ccc(S(=O)(=O)Cc2csc(-c3ccc(C(=O)NCc4cccnc4)cc3)n2)cc1 [Example 25] ... 178 to 181 °C
3) Cc1oc(-c2ccc(C(=O)NCc3cccnc3)cc2)nc1CS(=O)(=O)c1ccc(N2CCOCC2)cc1 [Example 24] ... 208 to 210 °C
4) Cc1ccc(S(=O)(=O)Cc2nc(-c3ccc(C(=O)Nc4cccnc4)cc3)oc2C)cc1 [Example 1] ... 248 to 250 °C
5) COc1cccc(S(=O)(=O)Cc2nc(-c3ccc(C(=O)NCc4cccnc4)cc3)oc2C)c1 [Example 19] ... 143 to 145 °C
6) Cc1ccc(S(=O)(=O)Cc2nc(-c3ccc(C(=O)N(C)Cc4cccnc4)cc3)oc2C)cc1 [Example 7] ... 77 to 80 °C

Reported melting point, molecule Cc1ccc(S(=O)(=O)Cc2nc(-c3ccc(C(=O)NCc4ccncc4)cc3)oc2C)cc1 [Example 6] : ____
169 to 172 °C

Returns the measured melting point for the input molecule. Input: Cc1oc(-c2ccc(C(=O)NCc3cccnc3)cc2)nc1CS(=O)(=O)c1ccccc1 [Example 12]
196 to 198 °C

Requested field: melting point. Item: Cc1oc(-c2ccc(C(=O)NCc3cccnc3)cc2)nc1CS(=O)(=O)c1ccc(N2CCN(C)CC2)cc1 [Example 23]
210 to 215 °C

Look up melting point: Cc1cccc(S(=O)(=O)Cc2nc(-c3ccc(C(=O)NCc4cccnc4)cc3)oc2C)c1 [Example 17]
179 to 181 °C

Suppose we examine the molecule Cc1ccc(S(=O)(=O)Cc2nc(-c3ccc(C(=O)NCc4ccccn4)cc3)oc2C)cc1 [Example 4] ; what melting point value has been reported?
154 to 155 °C

I would be grateful if you could share the reported melting point for Cc1oc(-c2ccc(C(=O)NCc3ccccc3)cc2)nc1CS(=O)(=O)c1ccc(Br)cc1 [Example 27] .
234 to 237 °C

Give its melting point value. Item: O=C(Nc1cccnc1)c1ccc(CNS(=O)(=O)c2ccc(Cl)nc2)cc1 [II-2]
226 to 228 °C

So what's the measured melting point for this one? Cc1oc(-c2ccc(C(=O)NCc3cccnc3)cc2)nc1CS(=O)(=O)c1ccc(F)cc1 [Example 22]
218 to 220 °C

Param item = COc1ccc(S(=O)(=O)Cc2nc(-c3ccc(C(=O)NCc4cccnc4)cc3)oc2C)cc1 [Example 18] ; retrieve measured melting point.
189 to 191 °C

Give its melting point value. Item: Cc1oc(-c2ccc(C(=O)NCc3cccnc3)cc2)nc1CS(=O)(=O)c1ccc(Br)cc1 [Example 16]
224 to 227 °C

Give the measured melting point of Cc1ccc(S(=O)(=O)Cc2nc(-c3ccc(C(=O)NCc4cncn4C)cc3)oc2C)cc1 [Example 11] .
240 to 242 °C

Which melting point reading was recorded for the molecule Cc1ccc(S(=O)(=O)Cc2nc(-c3ccc(C(=O)NCc4cnccn4)cc3)oc2C)cc1 [Example 9] ?
204 to 206 °C

Fill blank: measured melting point of the molecule O=C(Nc1cccnc1)c1ccc(CNS(=O)(=O)c2nnc[nH]2)cc1 [II-7] is ____.
266 to 269 °C

----------
The entries below come with measured melting point values attached.

1) Cc1ccc(S(=O)(=O)Cc2nc(-c3ccc(C(=O)N(C)c4cccnc4)cc3)oc2C)cc1 ... 195 to 197 °C
2) Cc1cc(C)cc(S(=O)(=O)Cc2nc(-c3ccc(C(=O)NCc4cccnc4)cc3)oc2C)c1 ... 188 to 190 °C
3) Cc1oc(-c2ccc(C(=O)NCc3cccnc3)cc2)nc1CS(=O)(=O)c1ccc(C(C)(C)C)cc1 ... 177 to 180 °C
4) Cc1oc(-c2ccc(C(=O)NCc3cccnc3)cc2)nc1CS(=O)(=O)c1ccc(Cl)cc1 ... 220 to 222 °C
5) COc1ccc(S(=O)(=O)Cc2nc(-c3ccc(C(=O)NCc4cccnc4)cc3)oc2C)cc1OC ... 104 to 108 °C
6) Cc1ccc(S(=O)(=O)Cc2nc(-c3ccc(C(=O)NCc4nccn4C)cc3)oc2C)cc1 ... 190 to 192 °C
7) Cc1ccc(S(=O)(=O)Cc2nc(-c3ccc(C(=O)NCCc4cccnc4)cc3)oc2C)cc1 ... 207 to 208 °C

Please look at the following compound next.
Reported melting point for Cc1ncc(S(=O)(=O)NCc2ccc(C(=O)Nc3cccnc3)cc2)n1C : what is it?
238 to 240 °C

----------
# Tested on: RCC4
# METHOD_DESCRIPTION: XTT cell viability assay in RCC4 cells (VHL-deficient renal carcinoma)
# Format: cell-based
# PARTICULARS: Homo sapiens, 96 h, four days drug exposure
Below, each entry is listed alongside its reported IC50.

Illustrative cases are given below, each with its answer.
1. Cc1ncc(S(=O)(=O)NCc2ccc(C(=O)Nc3cccnc3)cc2)n1C [II-6] ... > 20 nM
2. Cc1oc(-c2ccc(C(=O)NCc3cccnc3)cc2)nc1CS(=O)(=O)[C@H]1CC[C@@H](N2CCCC2)CC1 [Example 42] ... < 1 nM

Param item = Cc1oc(-c2ccc(C(=O)NCc3cccnc3)cc2)nc1CS(=O)(=O)[C@H]1CC[C@H](N)C1 [Example 47] ; retrieve measured IC50.
> 20 nM

----------
# Test system: RCC4
# METHOD_DESCRIPTION: XTT cell viability assay in RCC4 cells (VHL-deficient renal carcinoma)
# Assay type: cell-based
# PARTICULARS: Homo sapiens, 96 h, four days drug exposure
pIC50: −log10 of the molar value.
READOUT_KIND: pIC50

1) Cc1oc(-c2ccc(C(=O)NCc3cccnc3)cc2)nc1CS(=O)(=O)C1CCN(C2CCCC2)CC1 [Example 54] ... > 9.00

Fill in: pIC50 of Cc1oc(-c2ccc(C(=O)NCc3cccnc3)cc2)nc1CS(=O)(=O)[C@H]1CC[C@@H](N2CCCCC2)CC1 [Example 43] is ___
> 9.00

# get_value(readout='pIC50', item= Cc1oc(-c2ccc(C(=O)NCc3cccnc3)cc2)nc1CS(=O)(=O)C1CCN(C)CC1 [Example 40] )
> 9.00

----------
# Tested on: RCC4
# METHOD_DESCRIPTION: XTT cell viability assay in RCC4 cells (VHL-deficient renal carcinoma)
# Format: cell-based
# PARTICULARS: Homo sapiens, 96 h, four days drug exposure
pIC50: −log10 of the molar value.
Measured pIC50 values are reported for all entries that follow.

1) Cc1oc(-c2ccc(C(=O)NCc3cccnc3)cc2)nc1CS(=O)(=O)[C@H]1CC[C@H](N2CCCC2)CC1 ... 7.70 to 9.00
2) Cc1oc(-c2ccc(C(=O)NCc3cccnc3)cc2)nc1CS(=O)(=O)[C@H]1CC[C@H](N2CCCC2)C1 ... > 9.00

Request the reported pIC50 associated with O=C(Nc1cccnc1)c1ccc(CNS(=O)(=O)c2ccco2)cc1
< 7.70

Please look up its pIC50: Cc1oc(-c2ccc(C(=O)NCc3cccnc3)cc2)nc1CS(=O)(=O)[C@H]1CC[C@H](N2CCCCC2)CC1
> 9.00

Request the reported pIC50 associated with O=C(Nc1cccnc1)c1ccc(CNS(=O)(=O)c2nnc[nH]2)cc1
< 7.70

Item Cc1oc(-c2ccc(C(=O)NCc3cccnc3)cc2)nc1CS(=O)(=O)[C@@H]1CC[C@H](N2CCCCC2)C1 has what recorded pIC50?
> 9.00

Please look up its pIC50: O=C(Nc1cccnc1)c1ccc(CNS(=O)(=O)c2ccc(Cl)nc2)cc1
< 7.70

Any idea what its pIC50 is? The compound is Cc1oc(-c2ccc(C(=O)NCc3cccnc3)cc2)nc1CS(=O)(=O)[C@@H]1CC[C@H](N2CCCC2)C1
> 9.00
